Values from PubChem BioAssay

# Measurement Protocol: binders of probe aFST on microarray, primary screen, stem cell growth factor project, biochemical, small-molecule microarray, fluorescence 635/667 (AID 1086);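 note: score merges 667 nm fluorescence with signal-to-noise of each printed compound spot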
# Stated Conditions: higher = more signal
Reported Endpoint: composite z-score
Give bare numbers.

Reference set (3 entries):
CN(C)CCCCCCNC(=O)[C@H]1C[C@H]2C(=O)N[C@@H](CCCCN)C(=O)N2[C@H]1c1ccc(O)cc1 | 3.49
O=C1c2ccccc2[C@@]2(Cc3ccccc3N(Cc3ccccc3)C2=O)[C@H](c2ccc(CO)cc2)N1C1CCCCC1 | -0.244
O=C1O[C@H](c2ccccc2)[C@H](c2ccccc2)N2[C@H]1[C@@H](C(=O)Nc1nc3ccccc3s1)[C@]1(C(=O)Nc3ccccc31)[C@H]2c1ccc(O)cc1 | 0.521

Look at each compound and report its composite z-score.
1. COCCOC(=O)N1C(=O)[C@@]2(c3cc(C#CCNC(N)=O)ccc31)[C@H](C(=O)N1CCc3cc(OC)c(OC)cc3C1)[C@H]1C(=O)O[C@H](c3ccccc3)[C@H](c3ccccc3)N1[C@@H]2c1ccc(OCCO)cc1
2. C=CC(=C)C1=CCO[C@@H]1[C@H]1CCCN1S(=O)(=O)c1ccccc1[N+](=O)[O-]
3. COC(=O)[C@@]1(Cc2ccc(OC)cc2)[C@H]2c3cc(C(=O)N(C)C)n(Cc4c(OC)[nH]cc(C)c4=O)c3C[C@H]2CN1C(=O)c1ccccc1
4. CC(C)c1ccc(NN2C(C(O)c3ccc(N(C)C)cc3)C=CC3C(=O)N(c4ccccc4)C(=O)C32)cc1 (stereo not drawn)

[0.536, 0.358, 0.927, 1.46]
